Target: T1, human CTLA-4 (Y201V), full length, on transfected cells (human, UniProt P16410 36-223)
T1 construct: whole, on cells; also called hCTLA-4; HEK293-hCTLA-4 (Y201V)
T1 sequence (looked up): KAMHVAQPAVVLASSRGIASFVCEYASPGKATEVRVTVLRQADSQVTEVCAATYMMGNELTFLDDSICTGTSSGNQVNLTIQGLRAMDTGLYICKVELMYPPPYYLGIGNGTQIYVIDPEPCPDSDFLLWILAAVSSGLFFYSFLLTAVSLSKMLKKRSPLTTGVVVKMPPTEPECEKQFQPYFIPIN
Assay: FACS, human CTLA-4 expressing cells
readout_type: MFI at 40 nM
# answer = number (no unit)

Look at this binder and give its reported MFI at 40 nM. 31C12F3 fully human CTLA-4 antibody (human IgG1, kappa) (antibody, V domains shown, also called mAb010) VH: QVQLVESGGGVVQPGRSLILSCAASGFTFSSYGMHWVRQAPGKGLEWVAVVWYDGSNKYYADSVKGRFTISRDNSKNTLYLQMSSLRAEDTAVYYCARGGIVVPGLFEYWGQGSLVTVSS VL: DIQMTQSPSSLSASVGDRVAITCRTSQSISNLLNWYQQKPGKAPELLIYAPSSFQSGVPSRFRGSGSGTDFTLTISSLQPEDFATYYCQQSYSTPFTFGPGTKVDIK
941

Look at this binder and give its reported MFI at 40 nM. 92C8B6 fully human CTLA-4 antibody (human IgG1, kappa) (antibody, V domains shown, also called mAb42; mAb042) VH: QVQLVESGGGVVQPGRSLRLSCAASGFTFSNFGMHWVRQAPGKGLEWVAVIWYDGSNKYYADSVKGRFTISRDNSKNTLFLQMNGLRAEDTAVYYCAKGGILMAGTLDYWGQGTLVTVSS VL: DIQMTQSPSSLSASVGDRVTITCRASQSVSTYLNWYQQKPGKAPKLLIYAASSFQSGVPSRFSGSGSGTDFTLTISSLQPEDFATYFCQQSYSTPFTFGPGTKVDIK
1040

Look at this binder and give its reported MFI at 40 nM. 97A8D1 fully human CTLA-4 antibody (human IgG1, kappa) (antibody, V domains shown, also called mAb49; mAb049) VH: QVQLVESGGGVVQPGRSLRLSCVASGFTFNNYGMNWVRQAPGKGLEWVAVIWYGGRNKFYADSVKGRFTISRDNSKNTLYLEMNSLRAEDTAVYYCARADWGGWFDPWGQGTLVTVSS VL: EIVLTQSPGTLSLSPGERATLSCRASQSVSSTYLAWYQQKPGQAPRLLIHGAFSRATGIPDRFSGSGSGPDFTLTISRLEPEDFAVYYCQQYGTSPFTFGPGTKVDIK
1020

Look at this binder and give its reported MFI at 40 nM. 40C4C6 fully human CTLA-4 antibody (human IgG1, kappa) (antibody, V domains shown, also called mAb09; mAb009) VH: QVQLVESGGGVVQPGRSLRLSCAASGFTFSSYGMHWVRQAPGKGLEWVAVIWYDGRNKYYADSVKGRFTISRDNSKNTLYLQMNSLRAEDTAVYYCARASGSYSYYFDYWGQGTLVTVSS VL: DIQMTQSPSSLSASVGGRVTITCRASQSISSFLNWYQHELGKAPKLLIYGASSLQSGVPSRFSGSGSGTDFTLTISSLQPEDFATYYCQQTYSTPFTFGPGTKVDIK
967

Data origin, for the record: patent US20210324080A1
